# Target Under Test: Transcription initiation factor TFIID subunit 1-like (Homo sapiens)
# Sequence (Q8IZX4 whole entry, the tested form may be a part): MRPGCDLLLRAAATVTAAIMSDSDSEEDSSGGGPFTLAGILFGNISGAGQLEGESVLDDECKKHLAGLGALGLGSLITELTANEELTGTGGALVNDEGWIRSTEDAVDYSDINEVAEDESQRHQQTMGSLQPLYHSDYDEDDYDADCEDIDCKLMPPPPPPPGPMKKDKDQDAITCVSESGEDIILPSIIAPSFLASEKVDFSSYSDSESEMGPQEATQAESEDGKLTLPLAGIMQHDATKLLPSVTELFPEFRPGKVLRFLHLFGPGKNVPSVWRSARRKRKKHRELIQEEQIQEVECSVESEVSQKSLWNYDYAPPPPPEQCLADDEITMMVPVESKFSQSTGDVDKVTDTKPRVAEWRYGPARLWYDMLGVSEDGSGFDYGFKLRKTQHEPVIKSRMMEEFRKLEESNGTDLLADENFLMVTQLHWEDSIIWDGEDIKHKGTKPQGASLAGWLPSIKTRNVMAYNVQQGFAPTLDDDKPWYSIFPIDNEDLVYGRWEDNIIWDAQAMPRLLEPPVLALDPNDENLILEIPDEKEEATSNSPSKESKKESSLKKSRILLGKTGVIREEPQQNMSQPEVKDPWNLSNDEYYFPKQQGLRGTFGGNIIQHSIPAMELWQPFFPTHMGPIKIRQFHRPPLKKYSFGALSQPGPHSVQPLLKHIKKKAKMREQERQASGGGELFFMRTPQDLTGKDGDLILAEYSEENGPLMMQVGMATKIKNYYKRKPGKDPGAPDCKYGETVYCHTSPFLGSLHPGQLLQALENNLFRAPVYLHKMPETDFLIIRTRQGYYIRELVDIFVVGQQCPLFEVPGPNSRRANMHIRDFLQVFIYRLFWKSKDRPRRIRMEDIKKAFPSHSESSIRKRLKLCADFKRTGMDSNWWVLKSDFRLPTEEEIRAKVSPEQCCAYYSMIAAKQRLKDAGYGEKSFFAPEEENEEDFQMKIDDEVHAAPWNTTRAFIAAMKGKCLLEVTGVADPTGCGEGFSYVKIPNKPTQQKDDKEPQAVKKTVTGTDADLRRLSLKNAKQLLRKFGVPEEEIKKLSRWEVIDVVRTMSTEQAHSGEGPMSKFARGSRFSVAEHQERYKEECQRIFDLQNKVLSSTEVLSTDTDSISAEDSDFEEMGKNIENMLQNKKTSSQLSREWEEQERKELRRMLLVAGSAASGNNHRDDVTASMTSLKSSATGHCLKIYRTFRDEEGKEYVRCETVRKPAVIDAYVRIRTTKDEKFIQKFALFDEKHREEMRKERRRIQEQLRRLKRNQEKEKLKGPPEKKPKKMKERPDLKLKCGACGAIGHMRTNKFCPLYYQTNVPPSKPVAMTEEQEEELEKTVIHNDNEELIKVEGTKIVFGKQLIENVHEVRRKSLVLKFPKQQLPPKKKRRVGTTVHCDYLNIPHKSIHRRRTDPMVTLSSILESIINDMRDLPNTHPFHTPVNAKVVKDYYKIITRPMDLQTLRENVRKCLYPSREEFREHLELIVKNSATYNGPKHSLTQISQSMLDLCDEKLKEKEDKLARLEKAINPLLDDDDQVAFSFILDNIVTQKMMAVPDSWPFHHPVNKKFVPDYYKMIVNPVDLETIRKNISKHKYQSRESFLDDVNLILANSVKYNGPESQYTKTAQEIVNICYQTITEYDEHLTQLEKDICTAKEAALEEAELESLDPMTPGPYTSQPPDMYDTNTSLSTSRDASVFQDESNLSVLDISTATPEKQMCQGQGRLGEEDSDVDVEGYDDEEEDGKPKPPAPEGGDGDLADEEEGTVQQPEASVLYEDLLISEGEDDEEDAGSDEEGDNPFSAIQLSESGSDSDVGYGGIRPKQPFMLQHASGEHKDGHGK
# Assay: Binding affinity to human partial length TAF1L bromodomain 2 (Q1523 to D1654 residues) expressed in bacterial expression system by BROMOscan assay
Value Kind: pKd
// returns pKd (minus log10 of molar concentration), number only

pKd recorded for this molecule, C[C@H]1CCN(S(=O)(=O)c2cc(NC(=O)CN3C(=O)N[C@@](C)(C4CC4)C3=O)ccc2Br)C1 , is 7.60

----------
Reported IC50 values are given for each entry in this list.
# Target Under Test: Bromodomain-containing protein 4 (Homo sapiens, UniProt O60885, Y390A)
# Assay: Displacement of Alexa Fluor 647-labeled ligand from BRD4 BD1 Y390A mutant (1 to 477 residue) (unknown origin) measured after 30 mins by TR-FRET assay

CC1CCCN1S(=O)(=O)c1cc(NC(=O)CN2C(=O)CNC2=O)ccc1Cl (racemic) | 31.6 µM
O=C(CN1C(=O)COC1=O)Nc1ccc(Cl)c(S(=O)(=O)N2CCCC2)c1 | > 50.1 µM
COCC1CCN(S(=O)(=O)c2cc(NC(=O)CN3C(=O)CNC3=O)ccc2Cl)C1 (racemic) | > 50.1 µM
CCN1CCc2c(nnn2CC(=O)Nc2ccc(Br)c(S(=O)(=O)N3CC[C@H](C)C3)c2)C1 | 31.6 µM
C[C@H]1CCN(S(=O)(=O)c2cc(NC(=O)Cn3nnc4c3CN(C)CC4)ccc2Br)C1 | > 50.1 µM
C[C@@H]1CN(S(=O)(=O)c2cc(NC(=O)CN3C(=O)CNC3=O)ccc2Cl)C[C@@H]1C | > 50.1 µM
O=C(CN1C(=O)CNC1=O)Nc1ccc(Cl)c(S(=O)(=O)C2CCCCC2)c1 | > 50.1 µM
CN1CCc2c(nnn2CC(=O)Nc2ccc(Cl)c(S(=O)(=O)N3CC[C@@H](C4CC4)C3)c2)C1 | 39.8 µM

IC50 recorded for this molecule, C[C@H]1CCN(S(=O)(=O)c2cc(NC(=O)CN3C(=O)N[C@](C)(C4CC4)C3=O)ccc2Br)C1 , is > 50.1 µM

IC50 recorded for this molecule, Cc1nnn(CC(=O)Nc2ccc(Br)c(S(=O)(=O)N3CC[C@H](C)C3)c2)c1C , is > 50.1 µM

IC50 recorded for this molecule, C[C@@H]1CN(S(=O)(=O)c2cc(NC(=O)CN3C(=O)CNC3=O)ccc2Cl)C[C@H]1C (racemic) , is 20 µM

IC50 recorded for this molecule, O=C(CN1C(=O)CNC1=O)Nc1ccc(Cl)c(S(=O)(=O)N2CCC3(CC3)C2)c1 , is > 50.1 µM

IC50 recorded for this molecule, CC(=O)N1CCc2c(nnn2CC(=O)Nc2ccc(Br)c(S(=O)(=O)N3CC[C@H](C)C3)c2)C1 , is > 50.1 µM

IC50 recorded for this molecule, CCCc1cn(CC(=O)Nc2ccc(Br)c(S(=O)(=O)N3CC[C@H](C)C3)c2)nn1 , is 39.8 µM

IC50 recorded for this molecule, C[C@H]1CCN(S(=O)(=O)c2cc(NC(=O)Cn3cc(CN(C)C)nn3)ccc2Br)C1 , is > 50.1 µM
